Mean % WT Binding: recorded values
biological target: human CD33 Q236A (human, UniProt P20138 18-364); test: alanine scan, flow cytometry, HEK293-T;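 further: antibody binding to each alanine-substituted CD33 mutant expressed transiently in HEK293-T, read as fluorescence minus background, mean of duplicates, relative to wild-type CD33 set as 100%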
Sequence (P20138 18-364 Q236A limits assumed): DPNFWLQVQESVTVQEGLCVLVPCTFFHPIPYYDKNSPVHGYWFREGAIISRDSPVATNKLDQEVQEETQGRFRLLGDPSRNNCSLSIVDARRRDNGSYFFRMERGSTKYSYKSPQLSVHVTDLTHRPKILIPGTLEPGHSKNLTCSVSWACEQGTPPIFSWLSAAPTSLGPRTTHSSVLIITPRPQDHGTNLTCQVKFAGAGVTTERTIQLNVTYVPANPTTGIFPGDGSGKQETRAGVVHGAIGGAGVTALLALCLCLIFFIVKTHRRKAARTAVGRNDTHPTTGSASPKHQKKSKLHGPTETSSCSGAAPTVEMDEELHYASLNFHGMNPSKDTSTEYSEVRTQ
MEASUREMENT TYPE: Mean % WT Binding (%)

• Refmab #2 (antibody, V domains shown, In the alanine scan antibodies were used as IgG or Fab) VH: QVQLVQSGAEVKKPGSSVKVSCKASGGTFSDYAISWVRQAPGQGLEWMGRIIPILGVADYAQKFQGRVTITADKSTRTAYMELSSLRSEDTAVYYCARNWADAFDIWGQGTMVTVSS VL: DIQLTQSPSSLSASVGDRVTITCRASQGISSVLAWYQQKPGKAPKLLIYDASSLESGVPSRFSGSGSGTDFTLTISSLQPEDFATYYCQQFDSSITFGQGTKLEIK = 111
• Refmab #4 (antibody, V domains shown, In the alanine scan antibodies were used as IgG or Fab) VH: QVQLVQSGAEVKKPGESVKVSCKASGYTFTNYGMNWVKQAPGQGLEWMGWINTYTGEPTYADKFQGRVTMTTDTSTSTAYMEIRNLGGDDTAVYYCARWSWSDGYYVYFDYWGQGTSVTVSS VL: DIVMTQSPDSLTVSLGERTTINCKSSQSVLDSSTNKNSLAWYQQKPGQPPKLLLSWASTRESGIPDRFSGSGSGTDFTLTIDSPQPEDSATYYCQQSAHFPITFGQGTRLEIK = 103
• Refmab #1 (antibody, V domains shown, In the alanine scan antibodies were used as IgG or Fab; also called hP67.6) VH: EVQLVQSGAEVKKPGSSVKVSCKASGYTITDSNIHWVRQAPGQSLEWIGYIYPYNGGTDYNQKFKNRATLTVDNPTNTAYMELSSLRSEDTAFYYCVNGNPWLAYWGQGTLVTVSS VL: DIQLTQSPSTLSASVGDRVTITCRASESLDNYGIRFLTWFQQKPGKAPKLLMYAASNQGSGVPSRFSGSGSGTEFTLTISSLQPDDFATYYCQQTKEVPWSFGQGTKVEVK = 89.5
• Refmab #3 (antibody, V domains shown, In the alanine scan antibodies were used as IgG or Fab) VH: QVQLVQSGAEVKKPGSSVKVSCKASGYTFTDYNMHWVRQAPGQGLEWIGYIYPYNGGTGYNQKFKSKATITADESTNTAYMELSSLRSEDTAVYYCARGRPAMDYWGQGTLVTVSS VL: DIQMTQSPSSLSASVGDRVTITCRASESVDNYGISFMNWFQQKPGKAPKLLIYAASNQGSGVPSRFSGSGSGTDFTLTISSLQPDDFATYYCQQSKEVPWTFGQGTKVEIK = 104
